Target or system B-RAF (Homo sapiens (Human)): recorded IC50 listed per item.
property-label: IC50

INSERT INTO assay_data (input_smiles, endpoint_result) VALUES
  ('O=C(Nc1ccc(Oc2ncnc3cc(OCCCN4CCOCC4)c4c(c23)OCCO4)cc1)Nc1ccc(Cl)c(C(F)(F)F)c1', '0.2 to 0.5 µM'),
  ('O=C(Nc1ccc(Oc2ncnc3cc(OCCCN4CCOCC4)c4c(c23)OCCO4)cc1)Nc1cc(C(F)(F)F)ccc1F', '0.2 to 0.5 µM'),
  ('COc1cc2ncnc(Nc3ccc(NC(=O)Nc4cccc(S(C)(=O)=O)c4)c(Cl)c3)c2c2c1OCCO2', '> 1 µM'),
  ('COCCOc1cc2ncnc(Oc3ccc(NC(=O)Nc4ccc(Cl)c(C(F)(F)F)c4)c(F)c3)c2c2c1OCCO2', '< 0.2 µM'),
  ('COc1cc2ncnc(Oc3ccc(NC(=O)Nc4cc(C(F)(F)F)ccc4F)cc3)c2c2c1OCCO2', '0.2 to 0.5 µM'),
  ('O=C(Nc1ccc(Oc2ncnc3cc(OCCCN4CCOCC4)c4c(c23)OCCO4)c(F)c1)Nc1cc(C(F)(F)F)ccc1F', '0.2 to 0.5 µM'),
  ('COCCOc1cc2ncnc(Oc3ccc(NC(=O)Nc4ccc(Cl)c(C(F)(F)F)c4)cc3)c2c2c1OCCO2', '0.5 to 1 µM'),
  ('COCCOc1cc2ncnc(Oc3ccc(NC(=O)Nc4ccc(F)cc4F)c(F)c3)c2c2c1OCCO2', '> 1 µM'),
  ('O=C(Nc1ccc(Oc2ncnc3cc(OCCCN4CCOCC4)c4c(c23)OCCO4)cc1Cl)NC1CC1', '> 1 µM');
